Test system: HepG2-CANX-COX4
Assay: phenotypically active (imaging signature differs from DMSO and reproducible) at any of 0.3-9 uM (binary (1 = active, 0 = inactive)); higher = active
Details: treatment time: 24 h
Form field: phenotypically active (one value per entry).

Observe how each entry below is paired with its result.
COc1cc2c(cc1OCCCN1CCCC1)N=C(N)C21CCC1
0 (inactive)
Cc1[nH]c2ccccc2c1CCNC(=O)c1ccccc1F
0 (inactive)
Clc1ccc(C(c2ccc(Cl)cc2)[n+]2ccn(CC(OCc3ccc(Cl)cc3Cl)c3ccc(Cl)cc3Cl)c2)cc1 (stereo unspecified) [Calmidazolium chloride]
0 (inactive)
N#Cc1ccccc1OCC(O)CNCCNC(=O)Nc1ccccc1 (stereo unspecified)
0 (inactive)
CC(C)NCCCC1(C(N)=O)c2ccccc2-c2ccccc21 [indecainide]
0 (inactive)

Query: Please state recorded phenotypically active (tested on HepG2-CANX-COX4) of O=C(NCc1ccccn1)Nc1nnc(-c2ccco2)o1
Result: 0 (inactive)

Query: Request: phenotypically active, test system HepG2-CANX-COX4, entry CC(C[N+](C)(C)C)OC(N)=O (stereo unspecified)
Result: 0 (inactive)

Query: Tell me reported phenotypically active for c1ccc2c(c1)Cc1c(Nc3ccc4c(c3)OCCO4)n[nH]c1-2 , tested with HepG2-CANX-COX4.
Result: 1 (active)

Query: Provide value of phenotypically active for this record tested with HepG2-CANX-COX4: NCCc1ccc(O)c(O)c1
Result: 0 (inactive)

Query: Hi! What's the reported phenotypically active for C=CC(=O)Nc1cccc(Nc2nc(Nc3ccc(OCCOC)cc3)ncc2F)c1 on HepG2-CANX-COX4?
Result: 1 (active)

Query: # value lookup — system HepG2-CANX-COX4, readout phenotypically active, item C[C@](N)(Cc1ccc(O)c(O)c1)C(=O)O
Result: 0 (inactive)
